- assay_system: human CD33 S131F (human, UniProt P20138 18-364)
- Sequence (P20138 18-364 S131F limits assumed): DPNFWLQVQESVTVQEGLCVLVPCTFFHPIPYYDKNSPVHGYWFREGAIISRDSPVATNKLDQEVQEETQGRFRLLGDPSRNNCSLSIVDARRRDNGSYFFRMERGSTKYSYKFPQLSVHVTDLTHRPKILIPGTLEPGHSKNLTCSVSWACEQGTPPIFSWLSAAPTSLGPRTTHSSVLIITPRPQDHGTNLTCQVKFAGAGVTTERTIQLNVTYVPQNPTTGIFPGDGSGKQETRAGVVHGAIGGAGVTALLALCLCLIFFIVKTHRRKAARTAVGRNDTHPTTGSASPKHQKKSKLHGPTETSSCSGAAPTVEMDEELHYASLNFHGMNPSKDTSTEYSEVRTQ
- assay_summary: flow cytometry, HEK293-T, IgG;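 further: CD33 point mutants transiently expressed, antibody binding measured by fluorescence in duplicate, background subtracted and scaled to binding on wild-type CD33 as 100%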
readout_label: Mean % WT Binding (% WT binding)
Numbers only here, please. The scale is % WT binding.

Item: Refmab #4 (antibody, human IgG1, V domains shown, tested in IgG format) VH: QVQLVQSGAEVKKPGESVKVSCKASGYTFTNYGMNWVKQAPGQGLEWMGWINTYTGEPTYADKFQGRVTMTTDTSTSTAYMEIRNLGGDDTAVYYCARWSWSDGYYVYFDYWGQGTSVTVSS VL: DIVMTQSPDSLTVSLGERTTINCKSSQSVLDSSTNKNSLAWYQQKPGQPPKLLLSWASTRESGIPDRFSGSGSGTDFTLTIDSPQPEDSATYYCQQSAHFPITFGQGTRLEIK | Mean % WT Binding: 91.8

Item: Refmab #2 (antibody, human IgG1, V domains shown, tested in IgG format) VH: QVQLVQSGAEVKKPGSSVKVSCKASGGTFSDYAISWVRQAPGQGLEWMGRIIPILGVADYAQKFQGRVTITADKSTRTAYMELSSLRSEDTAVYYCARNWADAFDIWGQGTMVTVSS VL: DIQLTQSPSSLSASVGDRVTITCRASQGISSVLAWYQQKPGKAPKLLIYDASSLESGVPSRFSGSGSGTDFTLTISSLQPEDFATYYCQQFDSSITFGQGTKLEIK | Mean % WT Binding: 111

Item: Refmab #1 (antibody, human IgG1, V domains shown, tested in IgG format; also called hP67.6) VH: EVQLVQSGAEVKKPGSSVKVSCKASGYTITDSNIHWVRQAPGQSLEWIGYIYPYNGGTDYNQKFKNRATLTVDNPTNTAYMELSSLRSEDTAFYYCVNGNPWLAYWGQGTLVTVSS VL: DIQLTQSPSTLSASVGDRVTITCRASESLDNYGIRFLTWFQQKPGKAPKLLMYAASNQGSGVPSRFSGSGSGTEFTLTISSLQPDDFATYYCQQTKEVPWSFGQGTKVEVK | Mean % WT Binding: 95.6

Item: Refmab #3 (antibody, human IgG1, V domains shown, tested in IgG format) VH: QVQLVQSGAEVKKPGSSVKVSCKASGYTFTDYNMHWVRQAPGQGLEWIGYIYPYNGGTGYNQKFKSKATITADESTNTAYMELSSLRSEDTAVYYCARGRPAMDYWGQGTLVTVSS VL: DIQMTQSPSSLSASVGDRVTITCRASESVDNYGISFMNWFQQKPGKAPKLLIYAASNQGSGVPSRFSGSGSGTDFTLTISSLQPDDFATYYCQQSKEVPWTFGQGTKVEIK | Mean % WT Binding: 103
